Each entry below lists one item and its recorded inhibition at 20 µM value.
target: his-galectin-3 (Homo sapiens, UniProt P17931); construct: purchased Abcam; assay: TR-FRET assay (in vitro galectin-3 binding inhibitory activity test); conditions: Table 1; compound at 20 μM; 60 nM his-galectin-3, 15 nM biotin-ASF; read-out: % Inhibitory activity (at 20 μM)
Sequence (P17931 whole entry): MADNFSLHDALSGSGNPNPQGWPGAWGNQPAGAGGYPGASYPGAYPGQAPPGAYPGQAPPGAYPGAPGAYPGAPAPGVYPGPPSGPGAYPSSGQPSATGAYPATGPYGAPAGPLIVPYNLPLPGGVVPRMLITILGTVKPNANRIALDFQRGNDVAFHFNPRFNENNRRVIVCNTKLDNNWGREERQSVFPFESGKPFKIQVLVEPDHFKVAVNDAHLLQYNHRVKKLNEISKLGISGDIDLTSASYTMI

>>> test_result("OC[C@H]1O[C@@]2(CCCN(Cc3cccc(Cl)c3)C2)[C@H](O)[C@@H](n2cc(-c3cc(F)c(F)c(F)c3)nn2)[C@H]1O [Compound A143]")
"< 25%"
>>> test_result("OC[C@H]1O[C@@]2(CCCCO2)[C@H](OCc2cccc(C(F)(F)F)c2)[C@@H](n2cc(-c3cc(F)c(F)c(F)c3)nn2)[C@H]1O [Compound A49]")
"25 to 50%"
>>> test_result("O=C(c1ccccc1)N1CCC[C@]2(C1)O[C@H](CO)[C@H](O)[C@H](n1cc(-c3cc(F)c(F)c(F)c3)nn1)[C@H]2O [Compound A138]")
"< 25%"

-- ask // inhibition at 20 µM lookup, key: O=C(Cc1ccccc1Cl)N[C@@H]1CCO[C@]12O[C@H](CO)[C@H](O)[C@H](n1cc(-c3cc(F)c(F)c(F)c3)nn1)[C@H]2O [Compound A112]
-- reply 50 to 75%

-- ask // inhibition at 20 µM lookup, key: COC(=O)CO[C@@H]1[C@@H](n2cc(-c3cc(F)c(F)c(F)c3)nn2)[C@@H](O)[C@@H](CO)O[C@@]12CCCCO2 [Compound A32]
-- reply 25 to 50%

-- ask // inhibition at 20 µM lookup, key: O=C(N[C@@H]1CCO[C@]12O[C@H](CO)[C@H](O)[C@H](n1cc(-c3cc(F)c(F)c(F)c3)nn1)[C@H]2O)C1CCCC1 [Compound A107]
-- reply 25 to 50%

-- ask // inhibition at 20 µM lookup, key: O=C(O[C@@H]1[C@@H](n2cc(-c3cc(F)c(F)c(F)c3)nn2)[C@@H](O)[C@@H](CO)O[C@@]12CCCO2)c1ccccc1Cl [Compound A70]
-- reply < 25%

-- ask // inhibition at 20 µM lookup, key: O=C(N[C@@H]1CCO[C@]12O[C@H](CO)[C@H](O)[C@H](n1cc(-c3cc(F)c(F)c(F)c3)nn1)[C@H]2O)c1cc2ccccc2o1 [Compound A123]
-- reply 50 to 75%

---

Each entry below lists one item and its recorded inhibition at 20 µM value.
target: his-galectin-3 (Homo sapiens); construct: purchased Abcam; assay: TR-FRET assay (in vitro galectin-3 binding inhibitory activity test); conditions: read-out: % Inhibitory activity (at 20 μM), Table 1; compound at 20 μM; 60 nM his-galectin-3, 15 nM biotin-ASF

>>> test_result("O=C(O[C@@H]1[C@@H](n2cc(-c3cc(F)c(F)c(F)c3)nn2)[C@@H](O)[C@@H](CO)O[C@@]12CCCCO2)c1cccnc1")
"25 to 50%"
>>> test_result("O=C(Cc1cccc(Cl)c1)N[C@@H]1CCO[C@]12O[C@H](CO)[C@H](O)[C@H](n1cc(-c3cc(F)c(F)c(F)c3)nn1)[C@H]2O")
"50 to 75%"
>>> test_result("OC[C@H]1O[C@@]2(CCCO2)[C@H](OCc2cccc(F)c2F)[C@@H](n2cc(-c3cc(F)c(F)c(F)c3)nn2)[C@H]1O")
"< 25%"
>>> test_result("O=C(O)CO[C@@H]1[C@@H](n2cc(-c3cc(F)c(F)c(F)c3)nn2)[C@@H](O)[C@@H](CO)O[C@@]12CCCCO2")
"25 to 50%"
>>> test_result("O=C(O[C@H]1[C@@H](n2cc(-c3cc(F)c(F)c(F)c3)nn2)[C@@H](O)[C@@H](CO)O[C@@]12CCCO2)c1ccccc1")
"< 25%"

-- ask // inhibition at 20 µM lookup, key: OC[C@H]1O[C@]2(OCC[C@H]2NCc2ccccc2)[C@H](O)[C@@H](n2cc(-c3cc(F)c(F)c(F)c3)nn2)[C@H]1O
-- reply < 25%

---

target: his-galectin-3 (Homo sapiens, UniProt P17931); construct: purchased Abcam; test: TR-FRET assay (in vitro galectin-3 binding inhibitory activity test); conditions: Table 1; compound at 20 μM; 60 nM his-galectin-3, 15 nM biotin-ASF; read-out: % Inhibitory activity (at 20 μM)
Each entry below lists one item and its recorded inhibition at 20 µM value.

-- ask // inhibition at 20 µM lookup, key: OC[C@H]1O[C@@]2(CCCCO2)[C@H](OCc2cccnc2)[C@@H](n2cc(-c3cc(F)c(F)c(F)c3)nn2)[C@H]1O
-- reply 25 to 50%

-- ask // inhibition at 20 µM lookup, key: OC[C@H]1O[C@]2(OCC[C@H]2c2ccccc2)[C@H](O)[C@@H](n2cc(-c3cc(F)c(F)c(F)c3)nn2)[C@H]1O
-- reply < 25%

-- ask // inhibition at 20 µM lookup, key: O=C(CO[C@@H]1[C@@H](n2cc(-c3cc(F)c(F)c(F)c3)nn2)[C@@H](O)[C@@H](CO)O[C@@]12CCCO2)c1ccccc1
-- reply 25 to 50%

-- ask // inhibition at 20 µM lookup, key: O=C(CO[C@@H]1[C@@H](n2cc(-c3cc(F)c(F)c(F)c3)nn2)[C@@H](O)[C@@H](CO)O[C@@]12CCCO2)N1CC(O)C1
-- reply 25 to 50%

-- ask // inhibition at 20 µM lookup, key: O=C(N[C@@H]1CCO[C@]12O[C@H](CO)[C@H](O)[C@H](n1cc(-c3cc(F)c(F)c(F)c3)nn1)[C@H]2O)C1(c2ccccc2)CC1
-- reply < 25%

-- ask // inhibition at 20 µM lookup, key: Cn1nnc(-c2ccc(CO[C@@H]3[C@@H](n4cc(-c5cc(F)c(F)c(F)c5)nn4)[C@@H](O)[C@@H](CO)O[C@@]34CCCO4)cc2)n1
-- reply 25 to 50%

-- ask // inhibition at 20 µM lookup, key: O=C1CCCC2(N1)O[C@H](CO)[C@H](O)[C@H](n1cc(-c3cc(F)c(F)c(F)c3)nn1)[C@H]2O (single isomer, unassigned)
-- reply < 25%

-- ask // inhibition at 20 µM lookup, key: O=C(CC1CCCC1)N[C@@H]1CCO[C@]12O[C@H](CO)[C@H](O)[C@H](n1cc(-c3cc(F)c(F)c(F)c3)nn1)[C@H]2O
-- reply 25 to 50%

-- ask // inhibition at 20 µM lookup, key: OC[C@H]1O[C@]2(OCC[C@H]2NCc2cccc(Br)c2)[C@H](O)[C@@H](n2cc(-c3cc(F)c(F)c(F)c3)nn2)[C@H]1O
-- reply 25 to 50%

-- ask // inhibition at 20 µM lookup, key: CN(Cc1cccc(Cl)c1)[C@@H]1CCO[C@]12O[C@H](CO)[C@H](O)[C@H](n1cc(-c3cc(F)c(F)c(F)c3)nn1)[C@H]2O
-- reply < 25%

-- ask // inhibition at 20 µM lookup, key: O=C(O[C@@H]1[C@@H](n2cc(-c3cc(F)c(F)c(F)c3)nn2)[C@@H](O)[C@@H](CO)O[C@@]12CCCO2)c1ccccc1
-- reply 25 to 50%

-- ask // inhibition at 20 µM lookup, key: O=C(c1cccnc1)N1CCC[C@]2(C1)O[C@H](CO)[C@H](O)[C@H](n1cc(-c3cc(F)c(F)c(F)c3)nn1)[C@H]2O
-- reply < 25%

---

Each entry below lists one item and its recorded inhibition at 20 µM value.
molecular target: his-galectin-3 (Homo sapiens, UniProt P17931); construct: purchased Abcam; assay: TR-FRET assay (in vitro galectin-3 binding inhibitory activity test); settings: Table 1; compound at 20 μM; 60 nM his-galectin-3, 15 nM biotin-ASF; read-out: % Inhibitory activity (at 20 μM)

-- ask Provide value of inhibition at 20 µM for this record tested with his-galectin-3 (Homo sapiens, UniProt P17931): OC[C@H]1O[C@@]2(CCCCO2)[C@H](OCc2cccc(F)c2)[C@@H](n2cc(-c3cc(F)c(F)c(F)c3)nn2)[C@H]1O
-- reply 25 to 50%

-- ask Provide value of inhibition at 20 µM for this record tested with his-galectin-3 (Homo sapiens, UniProt P17931): O=C(N[C@@H]1CCO[C@]12O[C@H](CO)[C@H](O)[C@H](n1cc(-c3cc(F)c(F)c(F)c3)nn1)[C@H]2O)c1cccc2ccccc12
-- reply > 75%

-- ask Provide value of inhibition at 20 µM for this record tested with his-galectin-3 (Homo sapiens, UniProt P17931): O=C(O[C@@H]1[C@@H](n2cc(-c3cc(F)c(F)c(F)c3)nn2)[C@@H](O)[C@@H](CO)O[C@@]12CCCO2)c1cccc(C(F)(F)F)c1
-- reply < 25%

-- ask Provide value of inhibition at 20 µM for this record tested with his-galectin-3 (Homo sapiens, UniProt P17931): OC[C@H]1O[C@@]2(CCCNC2)[C@H](O)[C@@H](n2cc(-c3cc(F)c(F)c(F)c3)nn2)[C@H]1O
-- reply < 25%

-- ask Provide value of inhibition at 20 µM for this record tested with his-galectin-3 (Homo sapiens, UniProt P17931): OC[C@H]1O[C@]2(OCC[C@H]2NCc2cccnc2)[C@H](O)[C@@H](n2cc(-c3cc(F)c(F)c(F)c3)nn2)[C@H]1O
-- reply > 75%

-- ask Provide value of inhibition at 20 µM for this record tested with his-galectin-3 (Homo sapiens, UniProt P17931): OC[C@H]1O[C@@]2(CCCCO2)[C@H](OCc2ccccc2)[C@@H](n2cc(-c3cc(F)c(F)c(F)c3)nn2)[C@H]1O
-- reply 25 to 50%
